The values you see were collected from the supplement of paper PMC6555819.

tested on: PPARa:RXRa (NR concentration 270 nM, RXRa partner concentration 90 nM); assay: PBM binding z-score (relative to random genomic background probes); higher = stronger binding; sequences stand for … in GC…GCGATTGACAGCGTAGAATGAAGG
Catalogue of PBM binding z-score values
Keep the answer to the number alone.

// worked examples, PBM binding z-score included
Query block: Bench note: what PBM binding z-score did `ATATGTAGGTTTAGGGTCATTCAGGTTGGTTCGC` show?
Result block: 4.59

Query block: Bench note: what PBM binding z-score did `CCACGGAGGACAACAGGAGGTCAGAGCTGCCAGA` show?
Result block: 2.21

Query block: Bench note: what PBM binding z-score did `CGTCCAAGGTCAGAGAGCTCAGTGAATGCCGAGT` show?
Result block: 3.92

Shift focus to the following entry.
Query block: Bench note: what PBM binding z-score did `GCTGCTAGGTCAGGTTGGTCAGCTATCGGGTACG` show?
Result block: 1.42
